// values below are reported inhibition
experiment: M. tuberculosis growth inhibition, HTS (AID 449762);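 further: bacterial growth assessed after seven days of incubation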; conditions: M. tuberculosis H37Rv growth inhibition, 7H9 media; at 25 µM; active compounds read high
The campaign covered roughly 330,000 compounds. About 1,900 (0.58%) were called active. Roughly 4% stayed inconclusive and do not appear here. Not all results are given here. Results with a measured potency or affinity are listed apart.

Worked set:
| Compound | inhibition |
| --- | --- |
| COc1cc(OC)nc(-n2ncc(OC)c(Br)c2=O)n1 | -1.81% (inactive) |
| CC(C)N1CCN(Cc2cccn2-c2cccnc2)CC1CCO (stereo unspecified) | -3.04% (inactive) |
| Cc1ccc(CN2CCN(Cc3ccc4c(c3)OCCO4)CC2CCO)cc1 (stereo unspecified) | -5.47% (inactive) |
| Cc1ccc(C(=O)Nc2nc(C(C)(C)C)cs2)s1 | 56.8% (inactive) |
| COc1ccc(-c2nc(C#N)c(NCc3cccnc3)o2)cc1OC | -2.1% (inactive) |

What does the data say about its inhibition? Entry: CSc1ccc(CNC(=O)C2CCC(=O)N(Cc3cccc(F)c3)C2)cc1 (stereo unspecified)
-1.72% (inactive)

====

// values below are reported inhibition
assay: M. tuberculosis growth inhibition, HTS (AID 449762);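 further: bacterial growth assessed after seven days of incubation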; details: M. tuberculosis H37Rv growth inhibition, 7H9 media; at 25 µM; active compounds read high
Hit rate of the full screen: of about 330,000 compounds, about 1,900 (0.58%) were called active. Not shown: some 4% with an inconclusive outcome. Only a sample is shown. Measured potencies and affinities stand elsewhere.
Field format: number, assumed %, no unit text.

Worked set:
| Compound | inhibition, % |
| --- | --- |
| CCSc1nnc(NC(=O)CCCOc2ccc(C)cc2)s1 | 1.29 |
| CCn1cc2nc(SCC(=O)Nc3ccc(F)cc3F)n(Cc3ccccc3)c(=O)c2n1 | -4.3 |
| CC1=C(C#N)C(c2cccnc2)C2=C(CC(c3ccc(Cl)cc3)CC2=O)N1 (configuration not stated) | 49.6 |
| Cc1nn(Cc2ccc(Cl)cc2Cl)c(C)c1NC(=O)Cn1nc([N+](=O)[O-])c(Cl)c1C | 5.47 |
| COc1ccccc1NS(=O)(=O)c1ccc2ccccc2c1 | 7.83 |
| COc1cccc2cc(C(=O)N3CCCCC3C)c(=O)oc12 (configuration not stated) | -7.25 |

What does the data say about its inhibition? Entry: `CNC[C@@H](C)NC[C@@H](Cc1ccccc1)NCCc1ccccc1`
1.77

Also `O=S(=O)(NCCc1cn2ccccc2n1)c1ccc(F)c(C(F)(F)F)c1` ?
-2.32

Also CCC(C)(C)C1CCC(=NNC(=S)Nc2ccccc2)CC1 (configuration not stated) ?
6.86

Also `O=C(C1=COCCO1)N1CCN(c2nc3ccc([N+](=O)[O-])cc3s2)CC1` ?
1.78

Also `O=C(CCCOc1ccc(Cl)cc1)Nc1cccc(C(=O)O)c1` ?
7.01

Also `NC[C@H](Cc1ccccc1)NCCCCC1CCCCC1` ?
-8.88

Also Cc1cccc(C2(c3cccc(C)c3)CC2C(=O)Nc2ccc([N+](=O)[O-])cc2O)c1 (configuration not stated) ?
8.65

Also `C[C@@H](NC(=O)c1[nH]cnc1C(=O)Nc1cccc(Cl)c1)c1ccccc1` ?
56.8

Also `CC(=O)Nc1cccc(C(=O)N2CCN(Cc3ccccc3)CC2)c1` ?
-9.84
